System: BT-20
Experiment: Inhibitory activity against proliferation of BT-20 cells in presence of TPE at 10e-5 M concentration.
Assay type: functional
Conditions: Homo sapiens
IC30 of 7 µM or higher: MET. Under 7 µM: NOT MET.

Record excerpt, results attached:
N#C/C(=C(\c1ccccc1)c1ccc(O)cc1)c1ccccc1 : MET
CC/C(=C(/c1ccc(O)cc1)c1ccc(OCCN(C)C)cc1)c1ccccc1 : MET
CCN(CC)CCOc1ccc(/C(=C(\C#N)c2ccccc2)c2ccc(O)cc2)cc1 : NOT MET

Okay, next one:
Decide: is the reported value of IC30 for `Cc1ccc(/C(=C(\C#N)c2ccc(O)cc2)c2ccc(O)cc2)cc1` equal to or greater than 7 µM?
NOT MET

----------
System: MCF7
Test: Inhibitory activity against proliferation of MCF-7 cells in presence of 10e-6 M concentration of [3H]- estradiol (E2)
Assay type: functional
Conditions: Homo sapiens
Mark Satisfied only for IC30 values smaller than 5 µM; exact matches and larger values are Not satisfied.

Cc1ccc(/C(=C(\C#N)c2ccc(O)cc2)c2ccc(O)cc2)cc1 : Not satisfied
N#CC(=C(c1ccc(O)cc1)c1ccc(O)cc1)c1ccccc1 : Not satisfied

Is IC30 of `CCC(=C(c1ccc(O)cc1)c1ccc(OCCN(C)C)cc1)c1ccccc1` strictly below 5 µM?
Satisfied

Is IC30 of `N#C/C(=C(\c1ccccc1)c1ccc(O)cc1)c1ccc(O)cc1` strictly below 5 µM?
Not satisfied

Is IC30 of `CCN(CC)CCOc1ccc(/C(=C(/C#N)c2ccccc2)c2ccc(O)cc2)cc1` strictly below 5 µM?
Satisfied

Is IC30 of `CCN(CC)CCOc1ccc(C(C#N)=C(c2ccccc2)c2ccccc2)cc1` strictly below 5 µM?
Satisfied

Is IC30 of `Cc1ccc(C(C#N)=C(c2ccc(O)cc2)c2ccc(O)cc2)cc1` strictly below 5 µM?
Not satisfied

----------
compounds and their reported pEC50
Test system: MCF7
Assay: Effective dose for [3H]- estradiol against proliferation of MCF-7 cells
Format: functional, cell-based
Conditions: Homo sapiens
Schema: pEC50 number; meaning minus log10 of the concentration expressed in molar units.

Solved cases (3 shown):
CCN(CC)CCOc1ccc(C(=C(C#N)c2ccccc2)c2ccc(OCCN(CC)CC)cc2)cc1 : 9.55
CCN(CC)CCOc1ccc(/C(=C(\C#N)c2ccccc2)c2ccc(O)cc2)cc1 : 10.52
Cc1ccc(/C(=C(\C#N)c2ccc(O)cc2)c2ccc(O)cc2)cc1 : 9.85

pEC50 recorded for this compound, `COc1ccc(/C(=C(/C#N)c2ccccc2)c2ccc(O)cc2)cc1` , is 9.72

pEC50 recorded for this compound, `CCN(CC)CCOc1ccc(C(C#N)=C(c2ccccc2)c2ccccc2)cc1` , is 7.60

----------
Target: Anti-estrogen binding site (AEBS) (Homo sapiens) (UniProt Q15125+Q9UBM7)
Test: Relative binding affinity for antiestrogen binding site (AEBS) of calf uterus 2 hr incubation at 0C
Assay type: tissue-based
Settings: Bos taurus
RBA of 40 or higher: Yes. Under 40: No.

CC/C(=C(\c1ccccc1)c1ccc(OCCN(C)C)cc1)c1ccccc1 : Yes

Decide: is the reported value of RBA for `CC/C(=C(/c1ccccc1)c1ccc(OCCN(C)C)cc1)c1ccccc1` equal to or greater than 40?
Yes

Decide: is the reported value of RBA for `CCN(CC)CCOc1ccc(/C(=C(\C#N)c2ccccc2)c2ccc(O)cc2)cc1` equal to or greater than 40?
No

Decide: is the reported value of RBA for `CN(C)Cc1cc(C(=C(C#N)c2ccccc2)c2ccc(O)c(CN(C)C)c2)ccc1O` equal to or greater than 40?
No

Decide: is the reported value of RBA for `CN(C)c1ccc(C(=C(C#N)c2ccccc2)c2ccc(N(C)C)cc2)cc1` equal to or greater than 40?
No
